Molecular target: pooled human IgG (human IgG1,2,3 and 4)
Below: a set of entries, each annotated with reported Enzyme Activity Endpoint Assay: Fab'2.
Quick note: number first, unit second.

protein: PRT-181 (protein) MANQEIRYSEVTPYHVTSVWTKGVTPPANFTQGEDVFHAPYVANQGWYDITKTFNGKDDLLCGAATAGNMLHWWFDQNKDQIKRYLEEHPEKQKINFNGEQMFDVKEAIDTKNHQLDSKLFEYFKEKAFPYLSTKHLGVFPDHVIDMFINGYRLSLTNHGPTPVKEGSKDPRGGIFDAVFTRGDQSKLLTSRHDLKNKNLKEISDLIKKELTEGKALGLSHTYANVRINHVINLWGADFDSNGNLKAIYVTDSDSNASIGMKKYFVGVNSAGKVAISAKEIKEDNIGAQVLGLFTLSTGQDSWNQTN
propertyMeasured: Enzyme Activity Endpoint Assay: Fab'2
observedMeasurement: 890 ng/µL
--
protein: PRT-171 (protein) MANQEIRYSEVTPYHVTSVWTKGVTPPTDFIKGEDVFHAPYKAGQGWYDITKTFNGKDDLLCGAATAGNMLHWWFDQNKDQIKRYLEEHPEKQKINFNGEQMFDVKEAIDTKNSQLDSKLFEYFKEKAFPYLSTKHLGVFPDHVIDMFINGYRLSLTNHGPTPVKEGSKDPRGGIFDAVFTRGDQSKLLTSRHDFKEKNLKEISDLIKKELTEGKALGLSHTYANVRINHVINLWGADFDSNGNLKAIYVTDSDSNASIGMKKYFVGVNSAGKVAISAKEIKEDNIGAQVLGLFTLSTGQDSWNQTN
propertyMeasured: Enzyme Activity Endpoint Assay: Fab'2
observedMeasurement: 765 ng/µL
--
protein: PRT-173 (protein) MANQEIRYSEVTPYHVTSVWTKGVTPPANFTQGEDVFHAPYVANQGWYDITKTFNGKDDLLCGAATAGNMLHWWFDQNKDQIKRYLEEHPEKQKINFNGEQMFDVKEAIDTKNHQLDSKLFEYFKEKAFPYLSTKHLGVFPDHVIDMFINGYRLSLTNHGPTPVKEGSKDPRGGIFDAVFTRGDQSKLLTSRHDFKEKNLKEISDLIKKELTEGKALGLSHTYANVRINHVINLWGADFDSNGNLKAIYVTDSDSNASIGMKKYFVGKNASGKVAISAKEIEGENIGAQVLGLFTLSTGQDSWNQTN
propertyMeasured: Enzyme Activity Endpoint Assay: Fab'2
observedMeasurement: 912 ng/µL

Alright, here's another protein for you.
I am curious: what Enzyme Activity Endpoint Assay: Fab'2 value has been reported for PRT-175 (protein) MANQEIRYSEVTPYHITSVWTKGVTPPTDFTQGEDVFHAPYKANQGWYDITKTFNGKDDLLCGAATAGNMLHWWFDQNKTQIERYLKKHPEKQKINFNGEQMFDVKEAIDTKNSQTNSELFNYFKEKAFPYLSTKHLGVFPDHVIDMFINGYRLSLTNHGPTPVKRQSKDPRGGIFDAVFTRGDQSKLLTSRHDFKEKTLNEISQLIKQELTEGKALGLSHTYANVRINHVINLWGADFDAEGNLEAIYVTDSDSNASIGMKKYFVGVNSAGKVAISAKEIKEDNIGAQVLGLFTLSTGKDSWEKTN ?
497 ng/µL
